Tested on: male spontaneously hypertensive rats
experimentalDetails: Decrease in systolic blood pressure in spontaneously hypertensive rats after intravenous bolus injection, indirect (tail-cuff) method
Type: in vivo, rat
setupConditions: dose 10 mg/kg i.v. bolus, 0.5 hour after administration
# cutoff -70 mmHg applies to Decrease in systolic blood pressure (mmHg) time after administration (hour) 0.5; >= gives MET, < gives NOT MET

{"compound": "COc1cccc(CN2CCC(=C3c4ccccc4C=Cc4ccccc43)CC2)c1.Cl [Example 118]", "label": "NOT MET"}
{"compound": "Cl.O=C(CCCN1CCC(=C2c3ccccc3C=Cc3ccccc32)CC1)N1CCOCC1 [Example 245]", "label": "MET"}
{"compound": "COC(=O)C1(CCCCN2CCC(=C3c4ccccc4C=Cc4ccccc43)CC2)CCCCC1.Cl [Example 219]", "label": "NOT MET"}
{"compound": "Cl.O=[N+]([O-])c1ccccc1CCCCN1CCC(=C2c3ccccc3C=Cc3ccccc32)CC1 [Example 255]", "label": "MET"}
{"compound": "Cl.Clc1ccc(CN2CCC(=C3c4ccccc4C=Cc4ccccc43)CC2)cc1 [Example 130]", "label": "MET"}

Given the entry Cl.NS(=O)(=O)c1ccc(C=CCN2CCC(=C3c4ccccc4C=Cc4ccccc43)CC2)cc1 [Example 386] , answer whether its Decrease in systolic blood pressure (mmHg) time after administration (hour) 0.5 meets or surpasses -70 mmHg.
NOT MET

Further, for C1=Cc2ccccc2C(=C2CCN(CCCc3cccnc3)CC2)c2ccccc21.Cl.Cl [Example 270] ?
MET

Further, for Cl.OC(CCCN1CCC(=C2c3ccccc3C=Cc3ccccc32)CC1)c1ccc(F)cc1 (stereo not shown) [Example 108] ?
NOT MET

Further, for Cl.OCC1(CCCCN2CCC(=C3c4ccccc4C=Cc4ccccc43)CC2)CCCCC1 [Example 272] ?
NOT MET

Further, for CC(C)C(C#N)(CCCN1CCC(=C2c3ccccc3C=Cc3ccccc32)CC1)c1ccc(Cl)c(Cl)c1.Cl (stereo not shown) [Example 42] ?
MET

Values were extracted from patent USRE38257E1.
